Test system: KYSE-140;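 further: cell viability assay measuring growth inhibition in human KYSE-140 cells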
experimental_details: cells
Type: functional, cell-based, Homo sapiens
recorded_conditions: Homo sapiens, KYSE-140
Description: SANGER: Inhibition of human KYSE-140 cell growth in a cell viability assay.
pIC50: −log10 of the molar value.
endpoint_name: pIC50

# annotated cases, reported pIC50 shown
Field pIC50 (entry Cn1cc(C2=C(c3ccc(Cl)cc3Cl)C(=O)NC2=O)c2ccccc21 ) reads < 5.00

Field pIC50 (entry COc1ccc(C2=N[C@@H](c3ccc(Cl)cc3)[C@@H](c3ccc(Cl)cc3)N2C(=O)N2CCNC(=O)C2)c(OC(C)C)c1 ) reads < 5.10

Field pIC50 (entry C[C@]1(O)C[C@@H](c2nc(-c3ccc4ccc(-c5ccccc5)nc4c3)c3c(N)nccn32)C1 ) reads < 5.59

Now for the molecule whose pIC50 we want.
Field pIC50 (entry CC(=O)O[C@@]12CO[C@@H]1C[C@H](O)[C@@]1(C)C(=O)[C@H](O)C3=C(C)[C@@H](OC(=O)[C@H](O)[C@@H](NC(=O)OC(C)(C)C)c4ccccc4)C[C@@](O)([C@@H](OC(=O)c4ccccc4)[C@H]21)C3(C)C ) reads 9.03

---

Tested on: BL-70
experimental_details: SANGER: Inhibition of human BL-70 cell growth in a cell viability assay.
Format: functional, cell-based
endpoint_name: IC50 (nM)
State just the number; it will be interpreted in nM.

Field IC50 (entry CCc1nc(N)nc(N)c1-c1ccc(Cl)cc1 [PYRIMETHAMINE] ) reads 14600

Field IC50 (entry Cc1cc(Nc2cc(N3CCN(C)CC3)nc(Sc3ccc(NC(=O)C4CC4)cc3)n2)n[nH]1 [TOZASERTIB] ) reads 390

Field IC50 (entry CO[C@H]1C[C@@H]2CC[C@@H](C)[C@@](O)(O2)C(=O)C(=O)N2CCCC[C@H]2C(=O)O[C@H]([C@H](C)C[C@@H]2CC[C@@H](O)[C@H](OC)C2)CC(=O)[C@H](C)/C=C(\C)[C@@H](O)[C@@H](OC)C(=O)[C@H](C)C[C@H](C)/C=C/C=C/C=C/1C [SIROLIMUS] ) reads 28.4

Now for the compound whose IC50 we want.
Field IC50 (entry Cn1cncc1[C@@](N)(c1ccc(Cl)cc1)c1ccc2c(c1)c(-c1cccc(Cl)c1)cc(=O)n2C [TIPIFARNIB] ) reads 1950

---

Tested on: NCI-H322M;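 further: cell viability assay measuring inhibition of growth of human NCI-H322M cells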
experimental_details: cells
Type: functional, cell-based
recorded_conditions: Homo sapiens
Description: SANGER: Inhibition of human NCI-H322M cell growth in a cell viability assay.
pIC50: −log10 of the molar value.
endpoint_name: pIC50

# annotated cases, reported pIC50 shown
Field pIC50 (entry CCC(=O)N1CCN(c2ccc(-n3c(=O)ccc4cnc5ccc(-c6cnc7ccccc7c6)cc5c43)cc2C(F)(F)F)CC1 ) reads < 5.92

Field pIC50 (entry CN1CCN(CCOc2cc(OC3CCOCC3)c3c(Nc4c(Cl)ccc5c4OCO5)ncnc3c2)CC1 ) reads < 5.70

Field pIC50 (entry Cn1cncc1[C@@](N)(c1ccc(Cl)cc1)c1ccc2c(c1)c(-c1cccc(Cl)c1)cc(=O)n2C ) reads < 4.80

Field pIC50 (entry COc1cc([C@@H]2c3cc4c(cc3[C@@H](O[C@@H]3O[C@@H]5CO[C@@H](C)O[C@H]5[C@H](O)[C@H]3O)[C@H]3COC(=O)[C@H]23)OCO4)cc(OC)c1O [ETOPOSIDE] ) reads < 4.80

Now for the molecule whose pIC50 we want.
Field pIC50 (entry CC1=C2C[C@H]3[C@@H](CC=C4C[C@@H](O)CC[C@@]43C)[C@@H]2CC[C@]12O[C@@H]1C[C@H](C)CN[C@H]1[C@H]2C ) reads < 4.80

---

Tested on: SK-MEL-2;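 further: growth inhibition of human SK-MEL-2 cells measured with a cell viability assay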
experimental_details: cells
Assay type: functional, cell-based, Homo sapiens
recorded_conditions: Homo sapiens, SK-MEL-2
Description: SANGER: Inhibition of human SK-MEL-2 cell growth in a cell viability assay.
endpoint_name: IC50

Field IC50 (entry Cc1cc([C@@H](C)Nc2ccccc2C(=O)O)c2nc(N3CCOCC3)cc(=O)n2c1 ) reads > 5120 nM

Field IC50 (entry CCC(=O)N1CCN(c2ccc(-n3c(=O)ccc4cnc5ccc(-c6cnc7ccccc7c6)cc5c43)cc2C(F)(F)F)CC1 ) reads 464 nM

---
Field IC50 (entry Cc1ccc(Nc2nccc(N(C)c3ccc4c(C)n(C)nc4c3)n2)cc1S(N)(=O)=O ) reads > 8000 nM

Field IC50 (entry C[C@]1(O)C[C@@H](c2nc(-c3ccc4ccc(-c5ccccc5)nc4c3)c3c(N)nccn32)C1 ) reads > 2560 nM

---

Tested on: NCI-H292;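 further: growth inhibition of NCI-H292 cells, read out with a cell viability assay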
experimental_details: cells
Type: functional, cell-based, Homo sapiens
recorded_conditions: Homo sapiens, NCI-H292
Description: SANGER: Inhibition of human NCI-H292 cell growth in a cell viability assay.
Measured IC50 of individual entries
State just the number; it will be interpreted in µM.

Field IC50 (entry Cn1cncc1[C@@](N)(c1ccc(Cl)cc1)c1ccc2c(c1)c(-c1cccc(Cl)c1)cc(=O)n2C ) reads 9.28

Now for the compound whose IC50 we want.
Field IC50 (entry COc1cc([C@@H]2c3cc4c(cc3[C@@H](O[C@@H]3O[C@@H]5CO[C@@H](C)O[C@H]5[C@H](O)[C@H]3O)[C@H]3COC(=O)[C@H]23)OCO4)cc(OC)c1O [ETOPOSIDE] ) reads 4.71

---

Test system: ES1
experimental_details: cells
Type: functional, cell-based, Homo sapiens
recorded_conditions: Homo sapiens, ES1
Description: SANGER: Inhibition of human ES1 cell growth in a cell viability assay.
pIC50: −log10 of the molar value.
Measured pIC50 of individual entries

Field pIC50 (entry COc1ccc(C2=N[C@@H](c3ccc(Cl)cc3)[C@@H](c3ccc(Cl)cc3)N2C(=O)N2CCNC(=O)C2)c(OC(C)C)c1 [NUTLIN-3] ) reads < 5.10

Field pIC50 (entry CC(=O)O[C@@H]1[C@@H](OC(C)=O)[C@@H](O)[C@H](Oc2c(-c3ccc(O)cc3)oc3cc(O)cc(O)c3c2=O)O[C@H]1C ) reads < 5.00

Field pIC50 (entry CO[C@H]1C[C@@H]2CC[C@@H](C)[C@@](O)(O2)C(=O)C(=O)N2CCCC[C@H]2C(=O)O[C@H]([C@H](C)C[C@@H]2CC[C@@H](O)[C@H](OC)C2)CC(=O)[C@H](C)/C=C(\C)[C@@H](O)[C@@H](OC)C(=O)[C@H](C)C[C@H](C)/C=C/C=C/C=C/1C [SIROLIMUS] ) reads < 7.00

Field pIC50 (entry Nc1ccn([C@@H]2O[C@H](CO)[C@@H](O)[C@@H]2O)c(=O)n1 [CYTARABINE] ) reads 7.89

Field pIC50 (entry CS(=O)(=O)CCNCc1ccc(-c2ccc3ncnc(Nc4ccc(OCc5cccc(F)c5)c(Cl)c4)c3c2)o1 [LAPATINIB] ) reads < 5.70

Field pIC50 (entry C=CCc1cccc(/C=N/NC(=O)CN2CCN(Cc3ccccc3)CC2)c1O [PAC-1] ) reads < 5.59

---
Field pIC50 (entry O=c1cc(-c2cccc3c2Sc2ccccc2S3)oc(N2CCOCC2)c1 [KU-55933] ) reads < 5.00

Field pIC50 (entry O=C(NOCC1CC1)c1ccc(F)c(F)c1Nc1ccc(I)cc1Cl [CI-1040] ) reads < 5.00

Field pIC50 (entry CCOc1nc(NC(=O)Cc2cc(OC)ccc2OC)cc(N)c1C#N ) reads < 5.00

Field pIC50 (entry Cc1ccc(Nc2nccc(N(C)c3ccc4c(C)n(C)nc4c3)n2)cc1S(N)(=O)=O [PAZOPANIB] ) reads < 5.10

---

Measured pIC50 of individual entries
System: UACC-893
experimental_details: cells
Assay type: functional, cell-based, Homo sapiens
recorded_conditions: Homo sapiens, UACC-893
Description: SANGER: Inhibition of human UACC-893 cell growth in a cell viability assay.
pIC50: −log10 of the molar value.

# annotated cases, reported pIC50 shown
Field pIC50 (entry O=C1N=C(NCc2cccs2)S/C1=C\c1ccc2ncccc2c1 ) reads < 5.30

Field pIC50 (entry Cn1cc(C2=C(c3ccc(Cl)cc3Cl)C(=O)NC2=O)c2ccccc21 [SB-216763] ) reads < 5.00

Field pIC50 (entry CC(=O)O[C@@]12CO[C@@H]1C[C@H](O)[C@@]1(C)C(=O)[C@H](O)C3=C(C)[C@@H](OC(=O)[C@H](O)[C@@H](NC(=O)OC(C)(C)C)c4ccccc4)C[C@@](O)([C@@H](OC(=O)c4ccccc4)[C@H]21)C3(C)C [DOCETAXEL] ) reads < 8.00

Field pIC50 (entry COC(=O)CNC(=O)C(=O)OC ) reads < 2.40

Field pIC50 (entry Nc1ccn([C@@H]2O[C@H](CO)[C@@H](O)[C@@H]2O)c(=O)n1 [CYTARABINE] ) reads < 5.70

Field pIC50 (entry COc1ccc(C2=N[C@@H](c3ccc(Cl)cc3)[C@@H](c3ccc(Cl)cc3)N2C(=O)N2CCNC(=O)C2)c(OC(C)C)c1 [NUTLIN-3] ) reads < 5.10

Field pIC50 (entry Cc1cnc(-c2cnc(NCCNc3ccc(C#N)cn3)nc2-c2ccc(Cl)cc2Cl)[nH]1 [LADUVIGLUSIB] ) reads < 5.59

Field pIC50 (entry CC(=O)O[C@@H]1[C@@H](OC(C)=O)[C@@H](O)[C@H](Oc2c(-c3ccc(O)cc3)oc3cc(O)cc(O)c3c2=O)O[C@H]1C ) reads < 5.00

---
Field pIC50 (entry C=CCNC1=C2C[C@@H](C)C[C@H](OC)[C@H](O)[C@@H](C)/C=C(\C)[C@H](OC(N)=O)[C@@H](OC)/C=C\C=C(/C)C(=O)NC(=CC1=O)C2=O [TANESPIMYCIN] ) reads 6.20

Field pIC50 (entry O=c1cc(-c2cccc3c2Sc2ccccc2S3)oc(N2CCOCC2)c1 [KU-55933] ) reads < 5.00
